# Test system: MALME-3M melanoma
# MEASUREMENT_PROTOCOL: NCI tumour cell line growth inhibition, 48 h
ENDPOINT_NAME: TGI

COMPOUND	ENDPOINT_NAME	ASSAY_RESULT
CCOP(=O)(OCC)c1ccc(=O)[nH]c1-c1cccs1	TGI	> 100 µM
N#CC(Nc1ccccc1)c1ccc(C(C#N)Nc2ccccc2)cc1 (stereo unspecified)	TGI	> 100 µM
O=C1NC2CCC(C2)C1c1ccccc1 (stereo unspecified)	TGI	> 100 µM
C[C@@H]1N=C(c2ccc(Br)cc2)Nc2nc3ccccn3c2C1=O	TGI	> 100 µM
C#C[C@]1(O)CCC2C3CCc4cc(Oc5nc(F)nc(-c6c7cc8ccccc8cc7c7n6CCS7)n5)ccc4C3CCC21C (stereo partly specified)	TGI	> 100 µM

QUERY: Could you please provide reported TGI for C=CCN1C=CC(=O)[C@H](O[Si](C)(C)C(C)(C)C)[C@@H]1/C=C/c1ccccc1 ? Thanks!
RESULT: 34.3 µM

QUERY: Could you please provide reported TGI for C=C(C)CN(CC#N)CC(=C)C ? Thanks!
RESULT: > 100 µM

QUERY: Could you please provide reported TGI for COc1ccc(-c2nc3ncccn3c2/C=C/C(=O)c2cc(OC)c(OC)c(OC)c2)cc1 ? Thanks!
RESULT: 17.1 µM

###

# Test system: MDA-MB-435
# MEASUREMENT_PROTOCOL: NCI tumour cell line growth inhibition, 48 h
ENDPOINT_NAME: TGI (µM)
Write the value in µM as a bare number.

COMPOUND	TARGET_UNDER_TEST	READOUT_UNIT	TGI
CC(C)(C)[Si](C)(C)OCC1CCC(n2cnc3c(N)ncnc32)O1 (stereo not given)	MDA-MB-435	µM	85.2

QUERY: Could you please provide reported TGI for CCCN1CCN(c2ccc3nc(-c4ccc5nc(-c6cc(OC)ccc6OC)[nH]c5c4)[nH]c3c2)CC1 ? Thanks!
RESULT: 3.24

QUERY: Could you please provide reported TGI for Cc1ccc(S(=O)(=O)NC2C(=O)c3ccccc3C(=O)C2n2cnc3ccccc32)cc1 (stereo not given) ? Thanks!
RESULT: 36.4

QUERY: Could you please provide reported TGI for CCOC(=O)[C@@H]1ON2O[C@H](OC3CCCC3(c3ccccc3)c3ccccc3)C[C@H]3OC(=O)[C@@H]1C32 (stereo not given in full) ? Thanks!
RESULT: 97.9

QUERY: Could you please provide reported TGI for COc1ccc(CNc2c3ccccc3nc3ccc(OC)cc23)cc1 ? Thanks!
RESULT: 6.32

###

# Tested on: CCRF-CEM leukemia
# MEASUREMENT_PROTOCOL: NCI tumour cell line growth inhibition, 48 h
ENDPOINT_NAME: TGI

Study these solved cases before continuing.
COMPOUND	TGI
CCSC1=N/C(=C\c2ccco2)C(Cl)=N1	> 100 µM
CSc1nc(NC(=O)O)c(N(C(C)=O)C(=O)O)c(=O)n1C	> 100 µM
NC1CCCCC1N.O=S(=O)([O-])CCCN1CCOCC1.O=S(=O)([O-])CCCN1CCOCC1.[Pt+4]	58.7 µM
CCCCc1ccc(-n2c3nc(=O)n(C)c(=O)c-3nc3ccccc32)cc1	41.6 µM
COc1cc(C(c2cc3c(cc2O)OCO3)N2CCCCC2)cc(OC)c1OC (stereo not given)	19.2 µM
CCC1=CC2Cc3nc4cc(Cl)ccc4c(N)c3C(C1)C2 (stereo not given)	15.9 µM

QUERY: Could you please provide reported TGI for C=CCN(CC=C)C(=O)c1cc(C)nc2c1c(=O)n(-c1ccccc1)c(=O)n2CC(O)CN1CCN(c2ncccn2)CC1 (stereo not given) ? Thanks!
RESULT: > 100 µM

###

# Test system: SN12C renal
# MEASUREMENT_PROTOCOL: NCI tumour cell line growth inhibition, 48 h
ENDPOINT_NAME: GI50

QUERY: Could you please provide reported GI50 for O=CN1N=C(c2ccc(Cl)cc2)CC1c1cccc(Nc2ccnc3cc(Cl)ccc23)c1 (configuration not stated) ? Thanks!
RESULT: 3.99 µM

###

# Test system: K-562 leukemia
# MEASUREMENT_PROTOCOL: NCI tumour cell line growth inhibition, 48 h
ENDPOINT_NAME: TGI

Study these solved cases before continuing.
MOLECULE	TGI
CC12CCC(C(=O)N3CC=CCC3)(OC1=O)C2(C)C (centres undefined)	> 100 µM
CC(=O)OC1COC(n2c(-c3ccc(Cl)cc3)cc(-c3ccccc3)c(C#N)c2=S)C(OC(C)=O)C1OC(C)=O (centres undefined)	> 59.8 µM
COC1OC(C)C(O)CC1OS(=O)(=O)c1ccc(C)cc1 (centres undefined)	> 100 µM

QUERY: Report measured TGI on K-562 leukemia; entry: CC/C(=C(/CC)c1ccc(O)cc1)c1ccc([O-])cc1.CC/C(=C(/CC)c1ccc(O)cc1)c1ccc([O-])cc1.O=C([CH-]C(=O)c1ccccc1)c1ccccc1.O=C([CH-]C(=O)c1ccccc1)c1ccccc1.[Ti+4]
RESULT: > 100 µM

QUERY: Report measured TGI on K-562 leukemia; entry: CCC(=O)NC(Nc1ccc(O)cc1)(C(F)(F)F)C(F)(F)F
RESULT: > 100 µM

QUERY: Report measured TGI on K-562 leukemia; entry: C[C@H]1C[C@H](C)c2ccccc2N(C)C1=Nc1ccccc1
RESULT: > 100 µM

QUERY: Report measured TGI on K-562 leukemia; entry: CN(/N=C/c1ccccn1)C1=NCCCCN1
RESULT: > 100 µM

QUERY: Report measured TGI on K-562 leukemia; entry: Cc1ccc(C(=O)C(Cl)C(Cl)c2ccc(C)cc2)cc1 (centres undefined)
RESULT: 7.15 µM

QUERY: Report measured TGI on K-562 leukemia; entry: OC(C/C(=N\N1CCCCC1)c1cccs1)(C(F)(F)F)C(F)(F)F
RESULT: > 10 µM

###

# Test system: MCF7 breast
# MEASUREMENT_PROTOCOL: NCI tumour cell line growth inhibition, 48 h
List of GI50 values.

Study these solved cases before continuing.
COc1cc2c(Oc3ccc4[nH]c(C)cc4c3F)ccnc2cc1OCC1(N)CC1 0.484 µM
c1cc(OCCN2CCCCC2)ccc1CNc1ccc2nc(CCC3CCCCC3)[nH]c2c1 1.7 µM
CCOc1ccc(Nc2nc(-c3ccc4c(c3)NC(=O)CO4)cs2)cc1 3.18 µM
NC(=O)c1ccc2c(-c3ccnc(NCCCO)n3)c(-c3ccc(F)cc3)nn2c1 > 16.9 µM

Let us examine a further case.
QUERY: Report measured GI50 on MCF7 breast; entry: COc1ccc(CNc2c3ccccc3nc3ccc(OC)cc23)cc1
RESULT: 2.11 µM

###

List of TGI values.
# Tested on: UACC-257 melanoma
# MEASUREMENT_PROTOCOL: NCI tumour cell line growth inhibition, 48 h

Study these solved cases before continuing.
COMPOUND	TGI
O=C1c2c(ccc3c2CCC3)CC12Cc1cc3c(cc1C2)CCC3	> 100 µM
O=C(O)c1ccc(Nc2nc3ccccc3nc2-c2cccs2)cc1	> 100 µM

QUERY: Could you please provide reported TGI for O=C(CCc1ccc(O)cc1)NCCc1cccc(OCc2ccccc2)c1 ? Thanks!
RESULT: 39.3 µM

###

# Tested on: SK-MEL-2 melanoma
# MEASUREMENT_PROTOCOL: NCI tumour cell line growth inhibition, 48 h
ENDPOINT_NAME: GI50

QUERY: Could you please provide reported GI50 for Cc1cc(I)cc(CN(C)CCN2CCCC2)c1O ? Thanks!
RESULT: 25.6 µM

QUERY: Could you please provide reported GI50 for CCCN1CCN(c2ccc3nc(-c4ccc5nc(-c6cc(OC)ccc6OC)[nH]c5c4)[nH]c3c2)CC1 ? Thanks!
RESULT: 19.7 µM

QUERY: Could you please provide reported GI50 for O=P([O-])(O)OP(=O)([O-])O.[NH-][C@@H]1CCCC[C@H]1[NH-].[Pt+4] ? Thanks!
RESULT: > 53.2 µM

QUERY: Could you please provide reported GI50 for O=C([O][Hg][CH2]C1COCC([CH2][Hg][O]C(=O)c2ccccc2)O1)c1ccccc1 (stereo not given) ? Thanks!
RESULT: 13.2 µM

QUERY: Could you please provide reported GI50 for COC(=O)c1c2c(c(C)[n+]([O-])c1C)C(=O)C=C(NCc1ccc(OC)cc1)C2=O ? Thanks!
RESULT: 2.14 µM

###

# Tested on: SK-MEL-2 melanoma
# MEASUREMENT_PROTOCOL: NCI tumour cell line growth inhibition, 48 h; in the data active means GI50 below about 0.43 µM; inactive means the rest
Return exactly one item of YES (active), NO (inactive)

Past entries and their recorded results:
MOLECULE	CLASS
NC1CCCCC1N.O=S(=O)([O-])CCCN1CCOCC1.O=S(=O)([O-])CCCN1CCOCC1.[Pt+4]	NO
NC(=O)c1ccc2c(-c3ccnc(NCCCO)n3)c(-c3ccc(F)cc3)nn2c1	NO
COc1cccc(-c2nc3sccn3c2-c2ccnc(NCCNS(=O)(=O)c3ccccc3)c2)c1	NO

Consider the record given below.
QUERY: Entry C=CCN(CC=C)C(=O)c1cc(C)nc2c1c(=O)n(-c1ccccc1)c(=O)n2CC(O)CN1CCN(c2ncccn2)CC1 (centres undefined) : call = ?
RESULT: NO
